# system: CD71 on SK-BR-3 cells (human, UniProt P02786 1-760)
# Sequence (P02786 whole entry): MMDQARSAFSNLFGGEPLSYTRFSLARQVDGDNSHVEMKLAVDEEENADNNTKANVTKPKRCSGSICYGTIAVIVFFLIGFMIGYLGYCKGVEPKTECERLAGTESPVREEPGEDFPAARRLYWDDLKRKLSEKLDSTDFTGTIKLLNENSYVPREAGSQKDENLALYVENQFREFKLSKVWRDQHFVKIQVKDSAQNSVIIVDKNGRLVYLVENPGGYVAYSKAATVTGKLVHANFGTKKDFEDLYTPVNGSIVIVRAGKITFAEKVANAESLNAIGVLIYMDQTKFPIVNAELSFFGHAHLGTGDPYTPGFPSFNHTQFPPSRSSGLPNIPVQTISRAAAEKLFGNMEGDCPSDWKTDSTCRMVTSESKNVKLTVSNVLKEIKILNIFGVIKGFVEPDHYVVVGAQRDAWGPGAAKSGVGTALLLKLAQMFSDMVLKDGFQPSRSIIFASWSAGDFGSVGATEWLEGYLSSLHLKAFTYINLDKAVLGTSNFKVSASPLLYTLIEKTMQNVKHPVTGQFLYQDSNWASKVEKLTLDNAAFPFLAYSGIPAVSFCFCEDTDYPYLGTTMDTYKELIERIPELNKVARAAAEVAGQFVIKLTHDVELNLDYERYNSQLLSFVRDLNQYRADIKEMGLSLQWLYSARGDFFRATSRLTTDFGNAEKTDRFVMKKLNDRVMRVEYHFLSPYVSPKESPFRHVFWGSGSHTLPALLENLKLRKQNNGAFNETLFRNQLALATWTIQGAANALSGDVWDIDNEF
# protocol.summary: cell-based or functional assay
Each record is given YES if its reported IC50, SK-BR3 viability, MMAF conjugate, no competitor is strictly below 1 nM. Records at or above 1 nM are given NO.

- binder: "SEQ ID NO 57 (designed binder, FN3 domain) MLPAPKNLVVSRVTEDSARLSWTAPDAAFDSFSIKYLEWWQDGEAIVLTVPGSERSYDLTGLKPGTEYYVHIAGVKGGYRSYPLSAIFTT"
  class.assignment: "YES"
- binder: "SEQ ID NO 47 (designed binder, FN3 domain) MLPAPKNLVVSRVTEDSARLSWTAPDAAFDSFTIWYAEALGDGEAIVLTVPGSERSYDLTGLKPGTEYFVDIYGVKGGFWSLPLSAIFTT"
  class.assignment: "NO"
- binder: "SEQ ID NO 48 (designed binder, FN3 domain) MLPAPKNLVVSRVTEDSARLSWTAPDAAFDSFVIEYFEQFNLGEAIVLTVPGSERSYDLTGLKPGTEYWVGIYGVKGGWLSHPLSAIFTT"
  class.assignment: "NO"
- binder: "SEQ ID NO 54 (designed binder, FN3 domain) MLPAPKNLVVSRVTEDSARLSWTAPDAAFDSFQILYQENAFEGEAIVLTVPGSERSYDLTGLKPGTEYWVYIYGVKGGYPSVPLSAIFTT"
  class.assignment: "YES"
- binder: "SEQ ID NO 46 (designed binder, FN3 domain) MLPAPKNLVVSRVTEDSARLSWTAPDAAFDSFTIEYFEFTGTGEAIVLTVPGSERSYDLTGLKPGTEYYVSIYGVKGGLLSAPLSAIFTT"
  class.assignment: "NO"
- binder: "SEQ ID NO 41 (designed binder, FN3 domain) MLPAPKNLVISRVTEDSARLSWTAPDAAFDSFFIYYIESYPAGEAIVLTVPGSERSYDLTGLKPGTEYWVGIDGVKGGRWSTPLSAIFTT"
  class.assignment: "YES"
- binder: "SEQ ID NO 33 (designed binder, FN3 domain) MLPAPKNLVVSRVTEDSARLSWTAPDAAFDSFTIQYEELTTVGEAIYLRVPGSERSYDLTGLKPGTEYVVWIEGVKGGLRSNPLGAAFTT"
  class.assignment: "NO"
- binder: "SEQ ID NO 53 (designed binder, FN3 domain) MLPAPKNLVVSRVTEDSARLSWTAPDAAFDSFFISYIEWWDLGEAIVLTVPGSERSYDLTGLKPGTEYHVEIFGVKGGTQSYPLSAIFTT"
  class.assignment: "NO"
- binder: "SEQ ID NO 45 (designed binder, FN3 domain) MLPAPKNLVVSRVTEDSARLSWTAPDAAFDSFAIYYLESYPEGEAIVLTVPGSERSYDLTGLKPGTEYWVGIDGVKGGTWSSPLSAIFTT"
  class.assignment: "YES"
- binder: "SEQ ID NO 40 (designed binder, FN3 domain) MLPAPKNLVVSRVTEDSARLSWTAPDAAFDSFVIEYWEYVGHGEAIVLTVPGSERSYDLTGLKPGTEYSVGIYGVKGGSLSRPLSAIFTT"
  class.assignment: "NO"
- binder: "SEQ ID NO 37 (designed binder, FN3 domain) MLPAPKNLVVSRVTEDSARLSWTAPDAAFDSFHIIYTEEEKEGEAIYLRVPGSERSYDLTGLKPGTEYLVEIEGVKGGKRSVPLNASFTT"
  class.assignment: "YES"
- binder: "SEQ ID NO 38 (designed binder, FN3 domain) MLPAPKNLVVSRVTEDSARLSWTAPDAAFDSFHIAYEESHTTGEAIFLRVPGSERSYDLTGLKPGTEYSVSIEGVKGGHYSPPLTAKFTT"
  class.assignment: "NO"
- binder: "SEQ ID NO 35 (designed binder, FN3 domain) MLPAPKNLVVSRVTEDSARLSWTAPDAAFDSFEIAYFEAIWNGEAIYLTVPGSERSYDLTGLKPGTEYQVEIRGVKGGPTSRPLFAWFTT"
  class.assignment: "YES"
- binder: "SEQ ID NO 60 (designed binder, FN3 domain) MLPAPKNLVVSRVTEDSARLSWTAPDAAFDSFTIWYAEAIGHGEAIVLTVPGSERSYDLTGLKPGTEYWVDIWGVKGGQQSKPLSAIFTT"
  class.assignment: "YES"
- binder: "SEQ ID NO 55 (designed binder, FN3 domain) MLPAPKNLVVSRVTEDSARLSWTAPDAAFDSFIIEYWEFVGYGEAIVLTVPGSERSYDLTGLKPGTEYWVAIYGVKGGDLSKPLSAIFTT"
  class.assignment: "YES"
- binder: "SEQ ID NO 56 (designed binder, FN3 domain) MLPAPKNLVVSRVTEDSARLSWTAPDAAFDSFVIEYFEALEGGEAIVLTVPGSERSYDLTGLKPGTEYFVGIYGVKGGPLSKPLSAIFTT"
  class.assignment: "YES"
- binder: "SEQ ID NO 42 (designed binder, FN3 domain) MLPAPKNLVVSRVTEDSARLSWTAPDAAFDSFTIEYYESFYGGEAIVLTVPGSERSYDLTGLKPGTEYYVSIYGVKGGWLSRPLSAIFTT"
  class.assignment: "NO"
